Cited source for all entries: patent US20210032312A1

Study target: T1, cynomolgus monkey CD8A on primary cynomolgus monkey CD8+ T cells (cynomolgus monkey, UniProt P01732 23-235 (human entry))
T1 construct: also called Cyno CD8alpha
T1 sequence (P01732 other isoform, or with tags, fused parts or gaps limits assumed): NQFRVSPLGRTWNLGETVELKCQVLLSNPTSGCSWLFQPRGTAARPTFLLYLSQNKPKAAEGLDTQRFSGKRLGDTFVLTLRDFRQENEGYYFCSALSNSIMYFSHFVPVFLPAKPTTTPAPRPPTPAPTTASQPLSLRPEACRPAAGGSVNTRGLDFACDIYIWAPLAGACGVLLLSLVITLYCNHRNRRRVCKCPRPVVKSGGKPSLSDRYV
Experiment description: flow cytometry, cyno CD8+ T cells, 0.2 uM FN3
Quantity name: Cyno T-cell Binding 0.2 uM (MFI)

Record excerpt, results attached:
P282CR9P1358_F11 (designed binder, FN3 domain) LPAPKNLVVSRVTEDSARLSWTAPDAAFDSFLIAYPEWPIFEGEAIVLTVPGSERSYDLTGLKPGTEYFVVIYGVKGGEQSSPLSAIFTT | 6580
P282DR9P1359_C10 (designed binder, FN3 domain) LPAPKNLVVSRVTEDSARLSWTAPDAAFDSFAIVYPEWPTDGEAIVLTVPGSERSYDLTGLKPGTEYAVFIWGVKGGNQSWPLSAIFTT | 15100
P282AR9P1356_H6 (designed binder, FN3 domain) LPAPKNLVVSRVTEDSARLSWRKRANSFDSFLIQYQESEKVGEAIVLTVPGSERSYDLTGLKPGTEYTVSIYGVHVEYDQHGRPRWSNPLSAIFTT | 3200
P282DR9P1359_E3 (designed binder, FN3 domain) LPAPKNLVVSRVTEDSARLSWTAPDAAFDSFAIAYPELPLGGEAIVLTVPGSERSYDLTGLKPGTEYFVIIYGVKGGVESFPLSAIFTT | 1620
P282DR9P1359_F7 (designed binder, FN3 domain) LPAPKNLVVSRVTEDSARLSWTAPDAAFDSFAIAYPEWPPQGEAIVLTVPGSERSYDLTGLKPGTEYFVVIYGVKGGSYSAPLSAIFTT | 26300
P282AR9P1356_H1 (designed binder, FN3 domain) LPAPKNLVVSRVTEDSARLSWIPNPSSFDSFLIQYQESEKVGEAIVLTVPGSERSYDLTGLKPGTEYTVSIYGVDVVFDPVGFPSHSNPLSAIFTT | 5700

[A] P282DR9P1359_E5 (designed binder, FN3 domain) LPAPKNLVVSRVTEDSARLSWTAPDAAFDSFAISYPEWPVPGEAIVLTVPGSERSYDLTGLKPGTEYFVIIYGVKGGLYSAPLSAIFTT
[B] P283AR9P1362_D6 (designed binder, FN3 domain) LPAPKNLVVSRVTEDSARLSWAKRPGAFDSFLIQYQESEKVGEAIVLTVPGSERSYDLTGLKPGTEYTVSIYGVDVKYDIDSRPISSNPLSAIFTT
Hello, I am sorting some records. Could you say if A or B has the smaller Cyno T-cell Binding 0.2 uM (MFI) value? When you have decided, please share the label of that item.
B
(B: 7720 MFI, A: 13600 MFI)
